Provide the recorded polymerase ribozyme fitness (log ratio) for the entries that follow.
B1: TPR 5TU (parent)
chain: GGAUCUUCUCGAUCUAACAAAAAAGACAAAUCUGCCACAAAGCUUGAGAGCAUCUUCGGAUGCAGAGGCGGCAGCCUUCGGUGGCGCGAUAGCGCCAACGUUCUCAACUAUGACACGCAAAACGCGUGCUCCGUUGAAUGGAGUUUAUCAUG

Variants of: B1
Experiment: polymerase ribozyme fitness, log enrichment relative to wild type (log ratio); higher = more active; in vitro selection for triplet polymerase activity
Fewer inactive variants are shown than the library holds.
Give bare numbers.

>>> test_result("C54A G94U C105U")
-2.47

Required: polymerase ribozyme fitness (log ratio), one value per variant below.
1. A89G G117U
2. C51A C54G G59C G84A C116G
3. A21G C116G
4. C85A G143C

## Output
[-0.974, -3.63, 1.2, -3.01]

Required: polymerase ribozyme fitness (log ratio), one value per variant below.
1. C54U C87U C105A
2. A41C U53A G92U
3. G58A U104A

## Output
[-2.09, -1.22, 0.105]

Required: polymerase ribozyme fitness (log ratio), one value per variant below.
1. U15G C79G
2. A37G G81C A142C
3. G46C G48A A73U U77C G80U C87U
4. A17G U109G G140U
5. U33C
6. A40G
7. A12G C35U U55G C87G A115U

## Output
1: -3.38; 2: -3.82; 3: -3.85; 4: -3.77; 5: -1.48; 6: -1.51; 7: -4.17
